test: chemical genetic growth profiling, strain panel (AID 1159580);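 note: tested at 20 µM; growth read once vehicle control cultures reached saturation at 30 °C; 1 = growth at the plate median or of vehicle wells; lower values mean less growth of the strain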; settings: S. cerevisiae deletion strains, growth OD, locus YKR001C, strain vps1
About 2,000 (36%) of roughly 5,500 compounds were called active. Inconclusive results (about 18%) are left out. Cut-off read from the data, not from the text of the source: active = normalized growth mostly below about 0.91 (no sharp cut-off); inconclusive = no clear call, values can overlap the other calls; inactive = mostly above about 0.92. The list shows a part of the results.
Respond with a class label; see TRUE for active, FALSE for inactive

compound="COC(=O)CC1C(C)(C)C(OC(C)=O)[C@@H]2[C@@H](OC(C)=O)[C@]34O[C@@]2(O)[C@]1(C)C3CC[C@]1(C)C4=CC(=O)O[C@H]1c1ccoc1 (stereo partly specified)" category_label=FALSE
compound="C[C@@H](CO)NC(=O)C1C=C2c3cccc4[nH]cc(c34)C[C@H]2N(C)C1 (stereo partly specified)" category_label=FALSE
compound=COc1nc(NC(C)C)nc(NC(C)C)n1 category_label=FALSE
compound=CC1=CC(=O)C(C(C)C)=CC1=O category_label=TRUE
compound="CC(=O)[C@@]1(O)CCC2C3C=C(Cl)C4=CC(=O)[C@@H]5CC5[C@]4(C)C3CC[C@@]21C (stereo partly specified)" category_label=FALSE
compound=Cc1cc(N)c2ccccc2[n+]1CCCCCCCCCC[n+]1c(C)cc(N)c2ccccc21 category_label=TRUE
compound=NCCCCN category_label=FALSE
compound=N#Cc1c(Cl)cccc1Cl category_label=FALSE

stdin: What classification did CC(C)Nc1nc(Cl)nc(NC(C)C)n1 end up with in this test?
stdout: FALSE

stdin: How did this test come out for O=C(CCCN1CCC(O)(c2ccc(Cl)cc2)CC1)c1ccc(F)cc1 ?
stdout: TRUE

stdin: Record request — test call for COc1cccc2c1CCC1=CC(=O)CC[C@@]12C
stdout: FALSE

* * *

experiment: chemical genetic growth profiling, strain panel (AID 1159580); conditions: S. cerevisiae deletion strains, growth OD, locus YOR083W, strain WHI5, hits give low values
The whole screen tested about 5,500 compounds, of which about 2,000 (36%) were called active. About 18% were inconclusive and are not listed. The list shows a part of the results.
property.name: normalized growth
Give the figure only, with no unit attached.

Example cases with answers are listed next.
molecule="CCC(=O)O[C@]1(C(=O)CCl)[C@@H](C)CC2C3CCC4=CC(=O)C=C[C@]4(C)[C@@]3(F)[C@@H](O)C[C@@]21C (some centres not stated)" recorded_result=1.02
molecule="CC1Cc2ccccc2N1NC(=O)c1ccc(Cl)c(S(N)(=O)=O)c1 (configuration not stated)" recorded_result=0.983
molecule=CC1=CC(=O)C(C(C)C)=CC1=O recorded_result=0.904

The measured normalized growth associated with CC(C)C[C@@H](NC(=O)OCC1c2ccccc2-c2ccccc21)C(=O)O reads 0.986

normalized growth recorded for this molecule, CCC(=O)OCC(=O)[C@@]1(OC(=O)CC)[C@@H](C)CC2C3CCC4=CC(=O)C=C[C@]4(C)C3(F)[C@@H](O)C[C@@]21C (some centres not stated) , is 1

Measured normalized growth of CC(=O)OC1CC[C@@]2(C)C(CCC3C2CC[C@]2(C)C(C4=CC(=O)OC4)C(OC(C)=O)CC32O)C1 (some centres not stated) : 0.977

response.value for C[C@H]1O[C@@H](O[C@H]2[C@@H](O)C[C@H](O[C@H]3[C@@H](O)C[C@H](O[C@H]4CC[C@]5(C)C6C[C@@H](O)[C@]7(C)[C@@H](C8=CC(=O)OC8)CC[C@]7(O)C6CC[C@@H]5C4)O[C@@H]3C)O[C@@H]2C)C[C@H](O)[C@@H]1O (some centres not stated) (field: normalized growth) = 0.945

Entry C[C@@H]1O[C@@H](O[C@H]2CC[C@]3(C=O)C4CC[C@]5(C)[C@@H](C6=CC(=O)OC6)CC[C@]5(O)C4CC[C@]3(O)C2)[C@H](O)[C@H](O)[C@H]1O (some centres not stated) , normalized growth reported as 1.01

* * *

assay: chemical genetic growth profiling, strain panel (AID 1159580); details: S. cerevisiae deletion strains, growth OD, locus YOR061W, strain CKA2
In all, about 5,500 compounds went through this assay and about 2,000 (36%) were called active. Not shown: some 18% with an inconclusive outcome. No stated cut-off is given here; in the data, active means normalized growth mostly below about 0.91 (no sharp cut-off); inconclusive means no clear call, values can overlap the other calls; inactive means mostly above about 0.92. The list shows a part of the results.
Give your call using only these classes: TRUE = active, FALSE = inactive

compound=O=C1Nc2ccccc2/C1=C\c1c[nH]c2ccccc12 category_label=TRUE
compound=O=c1[nH][nH]c(=O)n1CCCc1cc2cccc3ccc4cccc1c4c32 category_label=FALSE
compound=CC[C@@]1(O)C(=O)OCc2c1cc1n(c2=O)Cc2cc3ccccc3nc2-1 category_label=FALSE
compound=C[C@]12CCC(=O)C=C1CCc1ccc(O)cc12 category_label=FALSE
compound=O=C(Nc1ccccc1C(=O)O)OCC1c2ccccc2-c2ccccc21 category_label=TRUE

stdin: Each compound tested received a call. Report the one for COC(=O)NC(=S)Nc1ccccc1NC(=S)NC(=O)OC .
stdout: FALSE

stdin: For COc1c(O)cc2c(c1O)[C@H]1O[C@H](CO)[C@@H](O)[C@H](O)[C@@H]1OC2=O , what call appears in the results of this test?
stdout: FALSE

stdin: Please indicate how the test categorized COc1cccc2c1CCC1=CC(=O)CC[C@@]12C .
stdout: FALSE

stdin: Give the logged outcome of this assay for the following compound: NC(N)=Nc1ccc(Cl)cc1
stdout: FALSE

stdin: Give the logged outcome of this assay for the following compound: O=C(O)c1cc(O)ccc1O
stdout: FALSE

stdin: Outcome logged for COC(=O)CC1C(C)(C)C(OC(C)=O)[C@@H]2[C@@H](OC(C)=O)[C@]34O[C@@]2(O)[C@]1(C)C3CC[C@]1(C)C4=CC(=O)O[C@H]1c1ccoc1 (stereo partly specified) in this assay:
stdout: FALSE

stdin: Give the logged outcome of this assay for the following compound: N#Cc1c(Cl)cccc1Cl
stdout: FALSE

* * *

experiment: chemical genetic growth profiling, strain panel (AID 1159580);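 note: tested at 20 µM; growth read once vehicle control cultures reached saturation at 30 °C; 1 = growth at the plate median or of vehicle wells; lower values mean less growth of the strain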; details: S. cerevisiae deletion strains, growth OD, locus YDR477W, strain SNF1, hits give low values
Out of some 5,500 compounds screened, about 2,000 (36%) were called active. Roughly 18% stayed inconclusive and do not appear here. Some of the results follow.
property.name: normalized growth
Just the number, please, no unit after it.

chemical_string=CCCCCCCCCCCCSc1ncn[nH]1 property_name="normalized growth" recorded_result=0.734

get_value(item= O=C1Nc2ccccc2/C1=C\c1cccc2ccccc12 , readout=normalized growth) returns 0.773

response.value for CO/N=C1/CC(C)(C)Cc2c(-c3ccn(C(=O)Nc4cccc(Cl)c4)n3)sc(SC)c21 (field: normalized growth) = 0.996

Noted for O=C1Nc2ccccc2/C1=C\c1c[nH]c2ccccc12 : its normalized growth reads 0.135

* * *

In this section we review reported normalized growth values for a set of compounds.
experiment: chemical genetic growth profiling, strain panel (AID 1159580);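 note: tested at 20 µM; growth read once vehicle control cultures reached saturation at 30 °C; 1 = growth at the plate median or of vehicle wells; lower values mean less growth of the strain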; settings: S. cerevisiae deletion strains, growth OD, locus YOR144C, strain elg1, hits give low values
Among all 5,500 compounds or so, about 2,000 (36%) were called active. About 18% were inconclusive and are not listed. The list shows a part of the results.
Give the figure by itself; no unit, no explanation.

Past entries and their recorded results:
compound=COc1cc(C(=O)N2CCOCC2)cc(OC)c1OC property_name="normalized growth" recorded_result=1.01
compound=COc1cc(C(=O)O)cc(OC)c1OC property_name="normalized growth" recorded_result=1

The compound CC1(C)O[C@@H]2CC3C4C[C@H](F)C5=CC(=O)CC[C@]5(C)C4[C@@H](O)C[C@]3(C)[C@]2(C(=O)CO)O1 (some centres undefined) showed normalized growth equal to 1

Form field normalized growth, entry CC(=O)O[C@@H]1CC2C(C)(C)CCC[C@]2(C)C2CC[C@]3(C)C(=CC(=O)O[C@H]3c3ccoc3)[C@@]21C (some centres undefined) : 0.999

For this compound ( CC(=O)O[C@@H]1CC2C(C)(CC[C@H](O)C2(C)C)C2CC[C@]3(C)C(=CC(=O)O[C@H]3c3ccoc3)C21C (some centres undefined) ), measured normalized growth is 0.991

* * *

Each item that follows carries a reported normalized growth.
experiment: chemical genetic growth profiling, strain panel (AID 1159580);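 note: tested at 20 µM; growth read once vehicle control cultures reached saturation at 30 °C; 1 = growth at the plate median or of vehicle wells; lower values mean less growth of the strain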; conditions: S. cerevisiae deletion strains, growth OD, locus YGL086W, strain mad1, hits give low values
The whole screen tested about 5,500 compounds, of which about 2,000 (36%) were called active. Roughly 18% stayed inconclusive and do not appear here. The list shows a part of the results.

normalized growth reading for C[C@@H]1O[C@@H](O[C@H]2CC[C@]3(C=O)C4CC[C@]5(C)[C@@H](C6=CC(=O)OC6)CC[C@]5(O)C4CC[C@]3(O)C2)[C@H](O)[C@H](O)[C@H]1O (stereo partly specified) : 1.04 (inactive)

So for Nc1nc(/C(=C/CC(=O)O)C(=O)N[C@@H]2C(=O)N3C(C(=O)O)=CCS[C@H]23)cs1 , the logged normalized growth turned out to be 0.991 (inactive)

For C[C@H]1O[C@@H](O[C@H]2[C@@H](O)C[C@H](O[C@H]3[C@@H](O)C[C@H](O[C@H]4CC[C@]5(C)C6C[C@@H](O)[C@]7(C)[C@@H](C8=CC(=O)OC8)CC[C@]7(O)C6CC[C@@H]5C4)O[C@@H]3C)O[C@@H]2C)C[C@H](O)[C@@H]1O (stereo partly specified) the compound record lists normalized growth as 0.969 (inactive)

Noted for CC(=O)N1CCN(c2ccc(OCC3CO[C@](Cn4ccnc4)(c4ccc(Cl)cc4Cl)O3)cc2)CC1 (stereo partly specified) : its normalized growth reads 0.0803 (active)

Record C[C@H]1O[C@@H](O[C@H]2[C@@H](O)C[C@H](O[C@H]3[C@@H](O)C[C@H](O[C@H]4CC[C@]5(C)C6CC[C@]7(C)[C@@H](C8=CC(=O)OC8)CC[C@]7(O)C6CC[C@@H]5C4)O[C@@H]3C)O[C@@H]2C)C[C@H](O)[C@@H]1O (stereo partly specified) . Reported normalized growth: 1.02 (inactive)

Just so you know, measured normalized growth for C[C@]12CC[C@H](O)C[C@H]1CCC1C2CC[C@]2(C)[C@@H](C3=CC(=O)OC3)[C@@H](O)C[C@]12O (stereo partly specified) came out at 1 (inactive)

Numbers sourced from PubChem BioAssay AID1159580.
